Field: pKd. Provide a value for each of the binders that follow.
Target: DN-III quality control recombinant protein (produced by Fapon Biotech InC.) (dengue virus)
Assay: BLI, AMC sensor, antibody captured
Give bare numbers, as −log10 of the molar value.

binder	pKd
Mutation 1-20 (antibody, V domains shown) VH: EVQLQQSGTELVRPGALVKLSCKASGFNIKDYYVHWVKQRPRQGLEWIGWIDPENGKTLYDPKFQDKASITSDTSTNTAYLQLRSLTSEDTAVYYCVSAYYRFVYWGQGTLVTVSA VL: QIVLTQSPAIMSAFPGERVTMTCSASSSVRYMYWHQQKPGSSPRLLIYDTSNVASGVPVRFSGSGSGTSYSLTISRDEAMDAATYYCQQWSSTPRTFGGGTKLEIKR	9.39

Can you give me pKd for all of these, one by one?
1. Mutation 1-16 (antibody, V domains shown) VH: EVQLQQSGTELVRPGALVKLSCKASGFNIKDYYIHWVKQRPRQGLEWIGWIDPENGKTLYDPKFQDKASITSDTSTNTAYLQLRSLTSEDTAVYYCVSAYVRFVYWGQGTLVTVSA VL: QIVLTQSPAIMSAFPGERVTMTCSASSSVRYMYWHQQKPGSSPRLLIYDTSNVASGVPVRFSGSGSGTSYSLTISRDEAMDAATYYCQQWSSYPRTFGGGTKLEIKR
2. Mutation 1-37 (antibody, V domains shown) VH: EVQLQQSGTELVRPGALVKLSCKASGFNIKDYYIHWVKQRPRQGLEWIGWIDPENGKTLYDPKFQDKASITSDTSTNTAYLQLRSLTSEDTAVYYCVSAYYRFVYWGQGTLVTVSA VL: QIVLTQSPAIMSAFPGERVTMTCSASTSVRYMYWHQQKPGSSPRLLIYDTSNVASGVPVRFSGSGSGTSYSLTISRDEAMDAATYYCQQWSSTPRTFGGGTKLEIKR

1. 9.10
2. 9.46
